- assay_name: Pharmacokinetics in male SD rats (oral and i.v., various formulations)
- Format: in vivo, rat
- recorded_conditions: male, SD, rat, plasma, po, 10 mg/kg, rat, 10 mpk po, Formulation Example 4; NMP/ethanol/PEG200/saline vehicle; read-out: AUC(0-t)
reported_metric: AUC(0-t) (ng·h/mL)
# number only, unit ng·h/mL dropped from output

What value of measured AUC(0-t) is listed for COc1ccc(-c2cc(=O)c3c(O)c(OC)c(OCCN4CCNC(=O)C4)cc3o2)cc1OC [Compound 1] ? 42.5

----------
- assay_name: Pharmacokinetics in male SD rats (oral and i.v., various formulations)
- Format: in vivo, rat
- recorded_conditions: male, SD, rat, plasma, po, 10 mg/kg, rat, 10 mpk po, Formulation Example 4 (NMP: ethanol: PEG200: normal saline 5:10:30:55)
- Method: To examine the pharmacokinetics of the compound after oral administration, rat models were used. Male SD rats (weighed 250 to 300 g) were divided into several groups, each consisting of 3 rats, […], after which the amount of the compound present in the plasma was measured with the passage of time. […]
reported_metric: Cmax (ng/mL)
Supply the numeric figure in ng/mL, leaving out any unit text.

Please give the measured Cmax for this molecule: COc1ccc(-c2cc(=O)c3c(O)c(OC)c(OCCN4CCNC(=O)C4)cc3o2)cc1OC [Compound 1] 46.7

Data provenance is patent US10370364B1.
